Reference source: PubChem BioAssay (NCI)

system: NCI-H23 lung; experiment: NCI tumour cell line growth inhibition, 48 h; in the data active = GI50 below about 0.43 µM; inactive = the rest
Where a SMILES comes first, the peptide text is derived from it. [ ]: non-standard residue; d: D form. The star is where a group is joined. ξ: configuration not given here. NMeF = CN[C@@H](Cc1ccccc1)C(=O)O; NMeV = CN[C@H](C(=O)O)C(C)C; ξNMeN = CNC(CC(N)=O)C(=O)O; NMeA = CN[C@@H](C)C(=O)O; ξNMeV = CNC(C(=O)O)C(C)C; Boc = CC(C)(C)OC(=O)*
Form entry, call: pick from TRUE = active, FALSE = inactive

INPUT: Lab log entry: `COC(=O)/C=C1/SC(=Nc2ccc(F)cc2)N(CCc2c[nH]c3ccc(O)cc23)C1=O` — outcome as called in the assay?
OUTPUT: FALSE

INPUT: Lab log entry: COC(=O)[C@H](C)N(C)C(=O)C(CC(N)=O)N(C)C(=O)[C@H](Cc1ccccc1)N(C)C(=O)[C@@H]1CCCN1C(=O)[C@H](C(C)C)N(C)C(=O)C(C(C)C)N(C)C(=O)[C@@H](NC(=O)OC(C)(C)C)C(C)C (stereo partly drawn) (Boc-V[ξNMeV][NMeV]P[NMeF][ξNMeN][NMeA]-OMe) — outcome as called in the assay?
OUTPUT: FALSE

INPUT: Lab log entry: `CC(=O)Oc1cc(C(C)C)c(OCCN(C)C)cc1C` — outcome as called in the assay?
OUTPUT: FALSE

INPUT: Lab log entry: COc1ccc(C2C=C(c3ccc(OC)c(OC)c3)N=C3SC=CN32)c(Br)c1 (stereo not drawn) — outcome as called in the assay?
OUTPUT: FALSE

INPUT: Lab log entry: `Nc1c(C(=O)c2cccc(OC[C@@H](O)CO)c2)cnn1-c1ccc(F)cc1` — outcome as called in the assay?
OUTPUT: FALSE

INPUT: Lab log entry: COc1ccc(/C=C/C2C(C#N)=C(N)OC3=C2C(=O)CCC3)cc1 (stereo not drawn) — outcome as called in the assay?
OUTPUT: FALSE

INPUT: Lab log entry: `Cn1ccc2c1SSSSS2` — outcome as called in the assay?
OUTPUT: FALSE

INPUT: Lab log entry: `C=[CH][Sn]([CH]=C)([S]c1cccc2cccnc12)[S]c1cccc2cccnc12` — outcome as called in the assay?
OUTPUT: TRUE

###

system: SR leukemia; assay: NCI tumour cell line growth inhibition, 48 h
So I've got a bunch of compounds here, and I need their GI50 values.

INPUT: What GI50 value was documented for this compound, `COc1ccc(C(=S)N(C)NC(=O)CC(=O)NN(C)C(=S)c2ccc(OC)cc2)cc1` ?
OUTPUT: > 100 µM

INPUT: What GI50 value was documented for this compound, COc1ccc(C2C=C(c3ccc(OC)c(OC)c3)N=C3SC=CN32)c(Br)c1 (stereo unspecified) ?
OUTPUT: 1.95 µM

INPUT: What GI50 value was documented for this compound, O=C(OCC1OC(n2cc(C(F)(F)F)c(=O)[nH]c2=O)CC1OC(=O)c1ccc([N+](=O)[O-])cc1)c1ccc([N+](=O)[O-])cc1 (stereo unspecified) ?
OUTPUT: 11.3 µM

INPUT: What GI50 value was documented for this compound, `[2H]c1nc(C)nc([2H])c1-c1cc(NC[C@@H](C)c2cccc3c(C(=O)NC)ccnc23)ncn1` ?
OUTPUT: 63.1 µM

INPUT: What GI50 value was documented for this compound, `Cc1cc(=O)n2nnc3c4ccccc4ccc3n12` ?
OUTPUT: 2.28 µM

INPUT: What GI50 value was documented for this compound, `Cc1ccc(CN(C)c2ccc(CO)c(Cl)c2)cc1` ?
OUTPUT: 23.7 µM

INPUT: What GI50 value was documented for this compound, `C[CH2][Pb]([CH2]C)([CH2]C)[O]C(=O)COC` ?
OUTPUT: 0.328 µM

INPUT: What GI50 value was documented for this compound, `O=c1ccccc(-c2ccc(Br)cc2)c1O` ?
OUTPUT: 0.316 µM

INPUT: What GI50 value was documented for this compound, COc1ccc(/C=C/C2C(C#N)=C(N)OC3=C2C(=O)CCC3)cc1 (stereo unspecified) ?
OUTPUT: 2.71 µM

INPUT: What GI50 value was documented for this compound, `Cc1oc2c(C(=O)N/N=C\c3ccc(O)cc3O)c[nH]c2c1C` ?
OUTPUT: 4.47 µM

INPUT: What GI50 value was documented for this compound, `Cc1nn2c(/C=N/N=C(N)N)c(-c3ccc(Cl)c([N+](=O)[O-])c3)nc2s1` ?
OUTPUT: 2.53 µM

INPUT: What GI50 value was documented for this compound, `N#C/C(=C\c1ccc(Br)cc1)n1nnc2c(F)cccc21` ?
OUTPUT: 0.441 µM

INPUT: What GI50 value was documented for this compound, `Nc1nc2cc(O)ccc2n2cc3c(F)cccc3c12` ?
OUTPUT: 0.462 µM

INPUT: What GI50 value was documented for this compound, `C[CH2][Sn]([CH2]C)([O]C(=O)c1c(F)cccc1F)[O][Sn]([CH2]C)([CH2]C)[O]C(=O)c1c(F)cccc1F` ?
OUTPUT: 26.6 µM

INPUT: What GI50 value was documented for this compound, CC(=O)NC1C(OCc2ccccc2)OC(CO)C(O)C1OC(C)C(=O)NC(C)C(=O)N[C@@H](CCC(=O)OCCCNC1c2ccccc2Nc2cccc([N+](=O)[O-])c21)C(N)=O (stereo partly specified) ?
OUTPUT: 0.0003 µM

INPUT: What GI50 value was documented for this compound, COc1cc(C2CC(c3cccc(Nc4ccncc4)c3)=NN2c2ccccc2)cc(OC)c1OC (stereo unspecified) ?
OUTPUT: 1.56 µM

INPUT: What GI50 value was documented for this compound, O=c1ncc(I)cn1C1CC(O)C(CO)O1 (stereo unspecified) ?
OUTPUT: 1170 µM

INPUT: What GI50 value was documented for this compound, `COc1cc2cnc3c(c2c(OC)c1OC)Cc1cc2c(cc1-3)OCO2` ?
OUTPUT: 0.0491 µM

INPUT: What GI50 value was documented for this compound, CCN(CC)CC(O)CNc1c2ccc(Cl)cc2nc2ccc(OC)cc12 (stereo unspecified) ?
OUTPUT: 0.338 µM

INPUT: What GI50 value was documented for this compound, `Cc1ccc(C2=NN(c3ccc(S(C)(=O)=O)cc3)C(=O)CC2)cc1` ?
OUTPUT: 0.4 µM

INPUT: What GI50 value was documented for this compound, `Clc1ccc(Cn2c(CN3CCCC3)nc3ccccc32)cc1` ?
OUTPUT: 23.5 µM
